Here, each record is paired with measured inhibition data.
# STUDY SYSTEM: Nociceptin receptor (Homo sapiens, UniProt P41146)
# Sequence (P41146 whole entry): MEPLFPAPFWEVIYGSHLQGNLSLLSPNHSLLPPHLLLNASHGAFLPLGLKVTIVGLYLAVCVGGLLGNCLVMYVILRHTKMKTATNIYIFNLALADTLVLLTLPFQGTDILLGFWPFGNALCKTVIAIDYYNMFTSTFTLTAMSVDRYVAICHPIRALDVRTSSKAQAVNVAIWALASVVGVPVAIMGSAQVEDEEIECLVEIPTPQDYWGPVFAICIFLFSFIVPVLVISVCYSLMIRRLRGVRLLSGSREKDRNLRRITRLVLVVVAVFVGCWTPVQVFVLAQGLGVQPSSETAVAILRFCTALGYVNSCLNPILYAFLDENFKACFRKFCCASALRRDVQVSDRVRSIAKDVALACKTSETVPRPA
# ASSAY OVERVIEW: Displacement of [3H]N/OFQ from human recombinant ORL1 receptor expressed in HEK293 cells at 1 uM after 45 mins by scintillation proximity assay
# Type: cell-based

Q: Value wanted: inhibition (Nociceptin receptor (Homo sapiens, UniProt P41146)) of entry CN(C)C(=O)[C@@H]1Cc2ccccc2N1C(=O)CCN1CC2CCC(C1)C2c1ccccc1 (stereo partly specified)
Result: 23%

Q: Value wanted: inhibition (Nociceptin receptor (Homo sapiens, UniProt P41146)) of entry CN(C)C(=O)C1Cc2ccccc2N1C(=O)CCN1CCc2ccccc2C1 (racemic)
Result: 11%

Q: Value wanted: inhibition (Nociceptin receptor (Homo sapiens, UniProt P41146)) of entry CN(C)C(=O)C1Cc2ccccc2N1C(=O)CCN1CCN(Cc2ccccc2)CC1 (racemic)
Result: 11%

Q: Value wanted: inhibition (Nociceptin receptor (Homo sapiens, UniProt P41146)) of entry Cc1cccc(N2CCN(CCC(=O)N3c4ccccc4CC3C(=O)N(C)C)CC2)c1 (racemic)
Result: 13%

Q: Value wanted: inhibition (Nociceptin receptor (Homo sapiens, UniProt P41146)) of entry CCCC(C)N1CCN(CCC(=O)N2c3ccccc3CC2C(=O)N(C)C)CC1 (racemic)
Result: 40%

Q: Value wanted: inhibition (Nociceptin receptor (Homo sapiens, UniProt P41146)) of entry CN(C)C(=O)C1Cc2ccccc2N1C(=O)CCN1CCN(c2ccccc2)CC1 (racemic)
Result: 43%

###

# STUDY SYSTEM: Nociceptin receptor (Homo sapiens)
# ASSAY OVERVIEW: Antagonist activity at human recombinant ORL1 receptor expressed in HEK293 cells assessed as inhibition of N/OFQ-induced [35S]GTPgammaS binding to alpha-unit of G-protein after 1.5 hrs by scintillation counting
REPORTED METRIC: IC50 (nM)

{"columns": ["COMPOUND", "IC50 (nM)"],
 "data": [
  ["CN(C)C(=O)[C@@H]1Cc2ccccc2N1C(=O)CCN1CCC(c2ccccc2)CC1", 138]
]}

1 = Cc1cccc(C)c1C1CCN(CCC(=O)N2c3ccccc3C[C@H]2C(=O)N(C)C)CC1
2 = Cc1ccccc1C1CCN(CCC(=O)N2c3ccccc3CC2C(=O)N(C)C)CC1 (racemic)
3 = CN(C)C(=O)C1Cc2ccccc2N1C(=O)CCN1CCN(c2ccccc2)CC1 (racemic)
4 = Cc1cc(F)ccc1C1CCN(CCC(=O)N2c3ccccc3C[C@H]2C(=O)N(C)C)CC1
Q: Arrange these 4 compounds in increasing order of IC50. List each label, following the requested order.
Result: 1, 4, 2, 3
(1: 12 nM, 4: 42 nM, 2: 116 nM, 3: 48000 nM)

###

# STUDY SYSTEM: Mu-type opioid receptor (Homo sapiens)
# Sequence (P35372 whole entry): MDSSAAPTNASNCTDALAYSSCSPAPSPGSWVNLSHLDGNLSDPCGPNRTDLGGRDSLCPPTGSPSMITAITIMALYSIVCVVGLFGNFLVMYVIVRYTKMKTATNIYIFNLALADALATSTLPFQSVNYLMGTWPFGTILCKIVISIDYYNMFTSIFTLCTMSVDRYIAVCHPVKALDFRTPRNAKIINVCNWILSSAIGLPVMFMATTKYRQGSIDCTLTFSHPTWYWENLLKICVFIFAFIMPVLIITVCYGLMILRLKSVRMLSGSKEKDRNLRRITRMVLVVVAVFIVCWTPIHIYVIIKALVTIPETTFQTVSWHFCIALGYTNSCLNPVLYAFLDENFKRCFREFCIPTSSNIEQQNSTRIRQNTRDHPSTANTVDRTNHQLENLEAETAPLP
# ASSAY OVERVIEW: Displacement of [3H]DAMGO from human recombinant MOP receptor expressed in CHO-K1 cells after 45 mins by scintillation proximity assay
REPORTED METRIC: Ki (nM)

Worked cases, answers included:
{"columns": ["MOLECULE", "UNITS SYMBOL", "Ki"],
 "data": [
  ["CN(C)C(=O)C1Cc2ccccc2N1C(=O)CCN1CCN(c2ccccc2)CC1 (racemic)", "nM", 397],
  ["Cc1ccccc1C1CCN(CCC(=O)N2c3ccccc3C[C@H]2C(=O)N(C)C)CC1", "nM", 67.2]
]}

1 = Cc1ccccc1C1CCN(CCC(=O)N2c3ccccc3CC2C(=O)N(C)C)CC1 (racemic)
2 = CN(C)C(=O)[C@@H]1Cc2ccccc2N1C(=O)CCN1CCC(c2ccccc2)CC1
3 = CN(C)C(=O)[C@@H]1Cc2ccccc2N1C(=O)CCN1CC2CCC(C1)C2c1ccccc1 (stereo not given in full)
Q: Hello, I need these entries ordered by Ki, highest reading first. Thanks! List each label, following the requested order.
Result: 1, 2, 3
